Values from paper PMC2532997

tested on: C. elegans fem-1(hc17) sterile adults; assay: Adult survival assay of sterile fem-1(hc17) adults on compound-supplemented medium; assay type: in vivo, Caenorhabditis elegans; conditions: Trial 6, 20 μM
Reported Relative survival is given for each of the following compounds.
The response must be a number in % with no trailing unit.

Answered examples (2):
                                   compound       measure_name  reading
0  Oc1cc(O)cc(/C=C/c2ccc(O)c(O)c2)c1 [Piceatannol, piceatannol, reference compound]  Relative survival       89
1  COc1ccc(/C=C/c2cc(OC)cc(OC)c2)cc1 [Resveratrol-trimethylether, resveratrol-trimethylether]  Relative survival       59

We next turn to a different compound, shown below.
## Task What value of measured Relative survival is listed for COc1cc(O)cc(/C=C/c2ccc(O)cc2)c1 [Pinostilbene, pinostilbene] ?
## Result 93
